tested on: MDA-MB-435 melanoma; assay: NCI-60 one-dose screen, 48 h (100 = growth as untreated, 0 = no growth, -100 = all killed); details: 10 µM unless noted
Compounds without any hit were thinned out: in the full panel of roughly 83,000, 20% have a hit.
assay readout: growth (%)

>>> number("N#Cc1c(-c2ccccc2)nc(SCc2nnc(-c3ccc(Cl)cc3)o2)[nH]c1=O")
109
>>> number("S=c1[nH]c(=S)c2c(-c3ccccc3)c(-c3ccccc3)oc2[nH]1")
97.3
>>> number("Cc1ccc(C)c(/C=C2\\CN(C(=O)OC(C)(C)C)C/C(=C\\c3cc(C)ccc3C)C2=O)c1")
-9.21
>>> number("O=C1/C(=C2\\SC(=S)N(C3CC3)C2=O)SC(=S)N1C1CC1")
103
>>> number("CC(C)(C)n1cc(-c2ccnc(NCCCNS(=O)(=O)c3cccc4ccccc34)c2)c(-c2cccc(F)c2)n1")
90.4
>>> number("CCN1CCN(c2cc(C)nc(N(CCNc3ccnc4cc(Cl)ccc34)Cc3ccc4c(c3)OCO4)n2)CC1")
-66.3
>>> number("C=C1C(=O)O[C@H]2[C@H]1CC/C(COC(=O)/C=C\\C(=O)NCc1ccc(Cn3c(=O)sn(CCCl)c3=O)cc1)=C\\CC[C@@]1(C)O[C@@H]21")
65.8
>>> number("O=C(CCCCCCN1CC(=O)N2[C@H](c3ccc(Cl)cc3)c3[nH]c4ccccc4c3C[C@@H]2C1=O)NO")
43.2
>>> number("CCN(CC)CCN1C(=O)c2c(c(C)c3c(oc4ccc(OC)cc43)c2C)C1=O")
104
>>> number("O=C(O)/C=C/C(=O)Nc1cccc(Cn2nnc3cc(Cl)c(Cl)cc32)c1")
106
>>> number("COC(=O)c1ccc(NC(=O)Nc2ccc(C(=O)OC)cc2)cc1")
109
>>> number("Cc1ccc(CNc2c3ccccc3nc3ccccc23)cc1")
31.2
>>> number("C#CC#CC#CC#CC#CC#CC#CC#CCC1OC[C@H](COC(=O)O[C@@H](C(=O)O[C@H]2C[C@@]3(O)[C@@H](OC(=O)c4ccccc4)[C@@H]4[C@]5(OC(C)=O)CO[C@@H]5C[C@H](O)[C@@]4(C)C(=O)[C@H](OC(C)=O)C(=C2C)C3(C)C)[C@@H](NC(=O)c2ccccc2)c2ccccc2)O1 (stereo partly drawn)")
-48
>>> number("Cc1ccc(S(=O)(=O)OCCCOS(=O)(=O)c2ccc(C)cc2)cc1")
101
>>> number("CSc1nn2c(-c3ccc4ccccc4c3)ccnc2c1C#N")
-63.6
>>> number("COC(=O)c1cc(Br)ccc1O")
116
>>> number("O=C(O)COc1ccc(Cl)c(Cl)c1")
104
>>> number("CCOC(=O)c1cnc2c(N=Nc3ccc(OC)cc3)c(N)nn2c1N")
95

From: PubChem BioAssay (NCI)
